- System name: KRAS(G12C) (Homo sapiens, UniProt P01116, G12C)
- Sequence (P01116 1-188 isoform P01116-2 G12C): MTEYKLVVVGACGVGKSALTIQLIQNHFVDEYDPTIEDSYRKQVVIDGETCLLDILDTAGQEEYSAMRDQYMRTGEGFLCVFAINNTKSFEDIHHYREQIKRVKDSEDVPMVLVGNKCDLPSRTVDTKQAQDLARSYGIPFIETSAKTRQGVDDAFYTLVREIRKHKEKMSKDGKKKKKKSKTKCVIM
- Assay procedure: KRAS(G12C) Western blot protein degradation assay in MIA PaCa-2 cells
- Type: cell-based
- Parameters: host or cells: LU65A
- Settings: 10,000 nM, 48 hr
- Description: The following cancer cell lines were employed: BT-474 human breast carcinoma (ATCC, #HTB-20); MIA PaCa-2 human pancreatic carcinoma [2 copies KRAS(G12C)](ATCC, #CRL-1420); NCI-H23 human non-small cell lung cancer [1 copy KRAS(G12C)](ATCC, #CRL-5800); NCI-H358 human non-small cell lung cancer [1 copy KRAS(G12C)](ATCC, #CRL-5807); LU65A human lung carcinoma (Pharmaron, Beijing, China). Cell lines were cultured essentially according to ATCC and Pharmaron recommendations. […]
Recorded metric: inhibition at 10 µM

query: Look up inhibition at 10 µM: C=CC(=O)N1CCN(c2nc(OC[C@@H]3CCN(C(=O)C4CCN(Cc5ccc(-n6c(C(N)=O)nnc6-c6cc(C(C)C)c(O)cc6O)cc5)CC4)C3)nc3c2CCN(c2cccc4cccc(Cl)c24)C3)C[C@@H]1CC#N
result: > 66%

query: How about C=CC(=O)N1CCN(c2nc(OC[C@@H]3CCN(C(=O)c4cc(CC)c(O)cc4O)C3)nc3c2CCN(c2cccc4cccc(Cl)c24)C3)C[C@@H]1CC#N ?
result: < 33%

query: How about C=CC(=O)N1CCN(c2nc(NCCC(=O)N3CCC(Cc4ccc(CN(C)Cc5ccc(-n6c(C(=O)NCC(F)(F)F)nnc6-c6cc(C(C)C)c(O)cc6O)cc5)cc4)CC3)nc3c2CCN(c2cc(O)cc4ccccc24)C3)CC1 ?
result: < 33%

###

- System name: KRAS(G12C) (Homo sapiens, UniProt P01116, G12C)
- Assay procedure: KRAS(G12C)/SOS1 homogeneous time-resolved fluorescence (HTRF) assay
- Settings: absence of GTP, 4° C. for 3 hr, read-out: KRAS (G12C) binding
Recorded metric: IC50

query: Look up IC50: CCC(=O)N1CCN(c2nc(NCCC(=O)N3CCC(CN4CCN(Cc5ccc(-n6c(C(=O)NC(C)C)nnc6-c6cc(CC)c(O)cc6O)cc5)CC4)CC3)nc3c2CCN(c2cc(O)cc4ccccc24)C3)CC1
result: > 1 µM

query: How about C=CC(=O)N1CCN(c2nc(OC[C@@H]3C[C@@H](NC(=O)c4ccc(-n5c(O)nnc5-c5cc(C(C)C)c(O)cc5O)cc4)CN3C)nc3c2CCN(c2cccc4cccc(Cl)c24)C3)C[C@@H]1CC#N ?
result: 0.1 to 1 µM

query: How about C=CC(=O)N1CCN(c2nc(OC[C@@H]3C[C@@H](OCC(=O)N4CCC(Cc5ccc(-n6c(C(=O)NCC(F)(F)F)nnc6-c6cc(C(C)C)c(O)cc6O)cc5)CC4)CN3C)nc3c2CCN(c2cccc4cccc(Cl)c24)C3)C[C@@H]1CC#N ?
result: 0.1 to 1 µM

query: How about C=CC(=O)N1CCN(c2nc(OC[C@@H]3CCCN(C(=O)C4CCN(Cc5ccc(-n6c(O)nnc6-c6cc(C(C)C)c(O)cc6O)cc5)CC4)C3)nc3c2CCN(c2cccc4cccc(Cl)c24)C3)C[C@@H]1CC#N ?
result: > 1 µM

###

- Test system: NCI-H358 human non-small cell lung cancer
- Assay procedure: NCI-H358 CCK-8 proliferation assay
- Assay type: cell-based
- Settings: NCI-H358 cells, 72 hr
pEC50: −log10 of the molar value.
Task for the reader: assign each of the following molecules its reported pEC50.

query: Look up pEC50: C=CC(=O)N1CCN(c2nc(NCCC(=O)N3CCN(Cc4ccc5c(c4F)CN(C(=O)c4cc(C)c(O)cc4O)C5)CC3)nc3c2CCN(c2cc(O)cc4ccccc24)C3)CC1
result: < 6.00

query: How about C=CC(=O)N1CCN(c2nc(NCCC(=O)NCCc3ccc(CN4CCC(Cc5ccc(-n6c(C(=O)NCC(F)(F)F)nnc6-c6cc(C(C)C)c(O)cc6O)cc5)CC4)cc3)nc3c2CCN(c2cccc4ccccc24)C3)C[C@H]1CC#N ?
result: 6.00 to 7.00

query: How about CCc1cc(-c2nnc(C(=O)NCC(F)(F)F)n2-c2ccc(CN(C)Cc3ccc(CC4CCN(C(=O)CCNc5nc6c(c(N7CCN(C(C)=O)[C@H](CC#N)C7)n5)CCN(c5cccc7ccccc57)C6)CC4)cc3)cc2)c(O)cc1O ?
result: 6.00 to 7.00

query: How about C=C(F)C(=O)N1CCN(c2nc(OC[C@@H]3CCCN3CCCOCCC(=O)NCc3ccc(-n4c(O)nnc4-c4cc(CC)c(O)cc4O)cc3)nc3c2CCN(c2cccc4cccc(Cl)c24)C3)C[C@@H]1CC#N ?
result: < 6.00

query: How about C=CC(=O)N1CCN(c2nc(NCCC(=O)NCc3ccc(-n4c(O)nnc4-c4ccc(O)cc4O)cc3)nc3c2CCN(c2cccc4ccccc24)C3)C[C@H]1CC#N ?
result: < 6.00

query: How about CCC(=O)N1CCN(c2nc(OC[C@@H]3CCCN3C(=O)C3CCN(Cc4ccc(-n5c(O)nnc5-c5cc(C(C)C)c(O)cc5O)cc4)CC3)nc3c2CCN(c2cccc4cccc(Cl)c24)C3)C[C@@H]1CC#N ?
result: 6.00 to 7.00

query: How about C=CC(=O)N1CCN(c2nc(NCCC(=O)NCc3ccc(-n4c(O)nnc4-c4cc(C(C)C)c(O)cc4O)cc3C(F)(F)F)nc3c2CCN(c2cc(O)cc4ccccc24)C3)CC1 ?
result: < 6.00
